- targetUnderTest: 5-lipoxygenase (Cavia porcellus, UniProt A0A286X958)
- Construct: in A-23187-stimulated guinea pig polymorphonuclear leukocytes; endogenous in cells
- Sequence (A0A286X958 1-674): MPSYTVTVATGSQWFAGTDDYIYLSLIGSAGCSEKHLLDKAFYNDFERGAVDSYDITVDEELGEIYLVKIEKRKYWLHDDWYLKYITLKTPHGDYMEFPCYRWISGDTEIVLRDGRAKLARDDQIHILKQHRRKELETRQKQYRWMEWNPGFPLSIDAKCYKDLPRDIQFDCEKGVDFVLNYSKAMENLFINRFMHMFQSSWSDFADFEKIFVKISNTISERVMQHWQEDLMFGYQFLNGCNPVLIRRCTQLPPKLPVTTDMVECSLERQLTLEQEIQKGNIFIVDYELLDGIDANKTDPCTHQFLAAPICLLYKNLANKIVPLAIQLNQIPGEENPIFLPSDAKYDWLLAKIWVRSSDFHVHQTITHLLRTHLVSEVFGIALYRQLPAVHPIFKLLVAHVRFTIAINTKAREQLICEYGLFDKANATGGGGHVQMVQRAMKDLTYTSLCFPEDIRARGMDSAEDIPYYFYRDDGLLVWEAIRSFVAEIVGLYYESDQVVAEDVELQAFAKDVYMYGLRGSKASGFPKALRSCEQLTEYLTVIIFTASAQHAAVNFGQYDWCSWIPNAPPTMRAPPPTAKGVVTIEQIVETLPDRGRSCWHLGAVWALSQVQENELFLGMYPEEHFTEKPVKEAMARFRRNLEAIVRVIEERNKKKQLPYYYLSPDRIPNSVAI
- assayComment: Inhibition of 5-HETE and LTB4 synthesis in A-23187-stimulated guinea pig polymorphonuclear leukocytes
- cond: also printed as 7×10^-7 M, read-out: IC50 for inhibition of the formation of 5-HETE and leukotriene B4 (LTB4)
pIC50: −log10 of the molar value.
measurementKind: pIC50

Prompt: # input compound: "Cc1ccc(C)n1-c1ccc(/C=C/C(=O)N(C)O)cc1" ; wanted: its pIC50
Response: ~6.15
